tested on: K562; test: Cytotoxicity against human K562 cells after 72 hrs by MTT assay; assay type: functional, cell-based; conditions: K562, 72 h
Could you please report measured pIC50 for the items listed next?
// pIC50: -log10(molar conc.)

Query: Item: `COc1ccc(-n2nc(-c3cc(OC)c(OC)c(OC)c3)c3nc(-c4cc(OC)c(OC)c(OC)c4)nnc32)cc1` Test system: K562 Read-out: pIC50 Value: ?
Response: 4.18

Query: Can you look up pIC50 on K562 for `COc1cc(-c2nn(-c3ccc(Cl)cc3)c3nnc(-c4ccc(Cl)cc4)nc23)cc(OC)c1OC` ?
Response: 3.72

Query: For K562, provide pIC50 of `COc1cccc(N/N=C(\c2cc(OC)c(OC)c(OC)c2)c2nc(-c3cc(OC)c(OC)c(OC)c3)n[nH]c2=O)c1` please.
Response: 3.95

Query: Enter reported pIC50 observed with K562 for `COc1cccc(N/N=C(\c2cc(OC)c(OC)c(OC)c2)c2nc(-c3ccc(Cl)cc3)n[nH]c2=O)c1`
Response: 4.38

Query: Can you look up pIC50 on K562 for `COc1ccc(-c2n[nH]c(=O)c(/C(=N/Nc3ccccc3OC)c3cc(OC)c(OC)c(OC)c3)n2)cc1` ?
Response: 3.83

Query: Which measured pIC50 belongs to `COc1cc(/C=C(/NC(=O)c2ccccc2)C(=O)NN)cc(OC)c1OC` , tested on K562?
Response: 3.79

Query: Find pIC50 (K562) for the entry `COc1ccc(N/N=C(\c2cc(OC)c(OC)c(OC)c2)c2nc(-c3cc(OC)c(OC)c(OC)c3)n[nH]c2=O)cc1`
Response: 4.73

Query: Item: `COc1cc(-c2nn(-c3ccccc3)c3nnc(-c4ccc(Cl)cc4)nc23)cc(OC)c1OC` Test system: K562 Read-out: pIC50 Value: ?
Response: 3.66

----------
tested on: K562; experiment: Cytotoxicity against human K562 cells after 72 hrs by MTT assay; assay type: functional, cell-based; conditions: K562, 72 h
ENDPOINT NAME: pIC50
Note: pIC50 values are expressed as the negative base-10 logarithm of concentration in M.

Query: Given the entry `COc1cc(/C=C(/NC(=O)c2ccc(Cl)cc2)C(=O)NN)cc(OC)c1OC` , what pIC50 was observed with K562?
Response: 3.78

Query: Notebook entry, K562 assay: pIC50 of `COc1ccc(-c2nnc3c(n2)c(-c2cc(OC)c(OC)c(OC)c2)nn3-c2ccccc2)cc1` = ?
Response: 3.78

Query: Provide value of pIC50 for this record tested with K562: `COc1ccc(-c2n[nH]c(=O)c(Cc3cc(OC)c(OC)c(OC)c3)n2)cc1`
Response: 5.51

Query: For K562, provide pIC50 of `COc1cccc(-n2nc(-c3cc(OC)c(OC)c(OC)c3)c3nc(-c4cc(OC)c(OC)c(OC)c4)nnc32)c1` please.
Response: 3.79

Query: I'm curious: which pIC50 was measured for `COc1ccc(-c2n[nH]c(=O)c(/C(=N/Nc3ccc(Cl)cc3)c3cc(OC)c(OC)c(OC)c3)n2)cc1` tested on K562?
Response: 4.38

Query: Any idea what pIC50 came out for `COc1cc(-c2nn(-c3ccccc3)c3nnc(-c4ccccc4)nc23)cc(OC)c1OC` on K562?
Response: 3.77

Query: Recall the recorded pIC50 for `COc1cc(/C=C(/NC(=O)c2cc(OC)c(OC)c(OC)c2)C(=O)NN)cc(OC)c1OC` with K562 and state it.
Response: 3.80

Query: # query: pIC50 | item `COc1ccc(-c2n[nH]c(=O)c(/C(=N/Nc3ccccc3)c3cc(OC)c(OC)c(OC)c3)n2)cc1` | system: K562
Response: 4.74

Query: Lab request: please report pIC50 under test system K562 for `COc1cc(Cc2nc(-c3cc(OC)c(OC)c(OC)c3)n[nH]c2=O)cc(OC)c1OC`
Response: 4.09

Query: # value lookup — system K562, readout pIC50, item `COc1cc(/C(=N\Nc2ccccc2)c2nc(-c3ccc(Cl)cc3)n[nH]c2=O)cc(OC)c1OC`
Response: 4.76

Query: Value wanted: pIC50 (K562) of entry `COc1ccc(-c2nnc3c(n2)c(-c2cc(OC)c(OC)c(OC)c2)nn3-c2ccc(OC)cc2)cc1`
Response: 3.73

Query: pIC50 of `COc1cc(Cc2nc(-c3ccccc3)n[nH]c2=O)cc(OC)c1OC` on K562?
Response: 5.93

Query: // map `COc1ccc(-c2n[nH]c(=O)c(/C(=N/Nc3cccc(OC)c3)c3cc(OC)c(OC)c(OC)c3)n2)cc1` to recorded pIC50 (system: K562)
Response: 3.79

Query: Entry `COc1ccc(-c2nnc3c(n2)c(-c2cc(OC)c(OC)c(OC)c2)nn3-c2ccc(Cl)cc2)cc1` , system K562: what pIC50 was measured?
Response: 3.69

Query: # query: pIC50 | item `COc1cc(-c2nnc3c(n2)c(-c2cc(OC)c(OC)c(OC)c2)nn3-c2cc(OC)c(OC)c(OC)c2)cc(OC)c1OC` | system: K562
Response: 3.62

Query: Recorded pIC50 for `COc1cccc(-n2nc(-c3cc(OC)c(OC)c(OC)c3)c3nc(-c4ccccc4)nnc32)c1` with K562, please?
Response: 3.93

Query: Missing value: pIC50, K562, entry `COc1cccc(-n2nc(-c3cc(OC)c(OC)c(OC)c3)c3nc(-c4ccc(Cl)cc4)nnc32)c1` . Fill in?
Response: 3.72

Query: Query the reported pIC50 for K562; item: `COc1cc(Cc2nc(-c3ccc(Cl)cc3)n[nH]c2=O)cc(OC)c1OC`
Response: 5.02
